Source: patent US11472877

- subject-of-test: T1, mouse TREM2 on BWZ cells (mouse, UniProt Q99NH8 19-227)
- T1 construct: whole, on cells; also called BWZ Mouse TREM2
- T1 sequence (looked up): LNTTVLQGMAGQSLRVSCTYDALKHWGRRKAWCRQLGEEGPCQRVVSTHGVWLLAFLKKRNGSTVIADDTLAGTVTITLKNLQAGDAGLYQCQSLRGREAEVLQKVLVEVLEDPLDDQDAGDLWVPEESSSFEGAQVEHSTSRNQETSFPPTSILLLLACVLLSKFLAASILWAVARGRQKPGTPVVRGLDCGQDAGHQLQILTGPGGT
- assay-overview: FACS, BWZ cells

binder	binding result
T1-75 (antibody, IgG1, V domains shown, huIgG1; also called TI-75; ADI-19152) VH: QVQLVESGGGLVQPGRSLRLSCAASGFTFDDYAMHWVRQAPGKGLEWVSGISWNSGDIGYADSVKGRFTISRDNAKNSLYLQMNSLRAEDTALYYCAKAPRTRWTYFDYWGQGTLVTVSS VL: EIVLTQSPATLSLSPGERATLSCRASQSVSSYLAWYQQKPGQAPRLLIYDASNRATGIPARFSGSGSGTDFTLTISSLEPEDFAVYYCQHYNLWRTFGGGTKVEIK	no binding
T1-23 (antibody, IgG1, V domains shown, huIgG1; also called TI-23; ADI-19090) VH: EVQLVESGGGLVQPGRSLRLSCAASGFTFDDYAMHWVRQAPGKGLEWVSGITWNSGSIGYADSVKGRFTISRDNAKNSLYLQMNSLRAEDTALYYCAKGPRLLSALDVWGQGTMVTVSS VL: DIQMTQSPSTLSASVGDRVTITCRASQSIGSWLAWYQQKPGKAPKLLIYKASSLESGVPSRFSGSGSGTEFTLTISSLQPDDFATYYCQQHQSFSPTFGGGTKVEIK	no binding
T1-80 (antibody, IgG1, V domains shown, huIgG1; also called TI-80; ADI-19159) VH: QVQLVESGGGVVQPGRSLRLSCAASGFTFSSYGMHWVRQAPGKGLEWVALIWYDGSNKYYADSVKGRFTISRDNSKNTLYLQMNSLRAEDTAVYYCARELIVGATGGLTYYYGMDVWGQGTTVTVSS VL: EIVMTQSPATLSVSPGERATLSCRASQSVGSNLAWYQQKPGQAPRLLIYGASTRATGIPARFSGSGSGTEFTLTISSLQSEDFAVYYCQQDHDRPLTFGGGTKVEIK	no binding
T1-73 (antibody, IgG1, V domains shown, huIgG1; also called TI-73; ADI-19149) VH: EVQLVESGGGLVQPGRSLRLSCAASGFTFDDYAMHWVRQAPGKGLEWVSGISWNSGSIGYADSVKGRFTISRDNAKNSLYLQMNSLRAEDTALYYCAKAPRMYGYFDLWGRGTSVTVSS VL: DIQMTQSPSTLSASVGDRVTITCRASQSISSWLAWYQQKPGKAPKLLIYKASSLESGVPSRFSGSGSGTEFTLTISSLQPDDFATYYCQQYRTYPTFGGGTKVEIK	no binding
T1-37 (antibody, IgG1, V domains shown, huIgG1; also called TI-37; ADI-19111) VH: QVQLVESGGGVVQPGRSLRLSCAASGFTFSSYGMHWVRQAPGKGLEWVALIWYDGSNKYYADSVKGRFTISRDNSKNTLYLQMNSLRAEDTAVYYCAKGDYLDPLFDYWGQGTLVTVSS VL: EIVMTQSPATLSVSPGERATLSCRASQSVSSNLAWYQQKPGQAPRLLIYGASTRATGIPARFSGSGSGTEFTLTISSLQSEDFAVYYCQQYAYWPLTFGGGTKVEIK	no binding
